Kindly state PBM E-score for each of the entries shown.
Target: Zap1 (UniProt P47043)
Sequence: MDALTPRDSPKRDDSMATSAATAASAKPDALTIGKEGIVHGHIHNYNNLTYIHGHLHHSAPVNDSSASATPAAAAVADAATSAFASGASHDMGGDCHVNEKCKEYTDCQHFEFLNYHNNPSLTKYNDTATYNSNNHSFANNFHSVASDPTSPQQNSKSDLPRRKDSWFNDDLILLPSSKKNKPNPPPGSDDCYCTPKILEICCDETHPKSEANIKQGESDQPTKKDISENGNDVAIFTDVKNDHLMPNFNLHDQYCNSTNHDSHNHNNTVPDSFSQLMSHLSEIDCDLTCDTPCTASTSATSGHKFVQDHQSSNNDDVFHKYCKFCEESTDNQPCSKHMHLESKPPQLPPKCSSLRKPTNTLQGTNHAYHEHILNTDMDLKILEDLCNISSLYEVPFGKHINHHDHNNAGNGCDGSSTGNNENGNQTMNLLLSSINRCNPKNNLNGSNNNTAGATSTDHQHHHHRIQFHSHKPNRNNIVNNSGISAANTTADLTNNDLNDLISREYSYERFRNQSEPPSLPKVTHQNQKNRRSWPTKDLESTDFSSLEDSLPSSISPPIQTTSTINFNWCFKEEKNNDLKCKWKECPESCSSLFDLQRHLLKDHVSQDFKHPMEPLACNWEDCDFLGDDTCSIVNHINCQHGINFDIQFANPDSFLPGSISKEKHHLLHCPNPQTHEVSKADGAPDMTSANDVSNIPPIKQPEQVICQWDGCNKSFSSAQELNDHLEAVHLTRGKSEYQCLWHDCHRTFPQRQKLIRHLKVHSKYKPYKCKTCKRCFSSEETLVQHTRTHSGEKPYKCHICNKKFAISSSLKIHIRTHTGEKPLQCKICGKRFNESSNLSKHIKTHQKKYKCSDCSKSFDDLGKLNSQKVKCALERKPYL
Assay: PBM E-score (8-mer binding enrichment) (E-score (-0.5 to 0.5)); higher = stronger / more preferred TF binding
Conditions: protein concentration: 200 nM; construct: GST-full length
Whole data set: some 33,000 sequences, median “E-score (-0.5 to 0.5)” near -0.021, cut for the highest 2% near 0.32. The entries come from a sample that favours the highest values as a whole.

Query string: Notebook: pull reported PBM E-score for Zap1 (UniProt P47043), entry `AGGGTTTA`
Result string: 0.315

Query string: Notebook: pull reported PBM E-score for Zap1 (UniProt P47043), entry `GGGGTTTA`
Result string: 0.126

Query string: Notebook: pull reported PBM E-score for Zap1 (UniProt P47043), entry `AGCAAGCG`
Result string: -0.192

Query string: Notebook: pull reported PBM E-score for Zap1 (UniProt P47043), entry `GGGGTTCA`
Result string: 0.0745

Query string: Notebook: pull reported PBM E-score for Zap1 (UniProt P47043), entry `TCGGTTAA`
Result string: 0.274

Query string: Notebook: pull reported PBM E-score for Zap1 (UniProt P47043), entry `AGAGACCA`
Result string: 0.121

Query string: Notebook: pull reported PBM E-score for Zap1 (UniProt P47043), entry `AGAGTTAA`
Result string: -0.086

Query string: Notebook: pull reported PBM E-score for Zap1 (UniProt P47043), entry `AGGGGCTG`
Result string: -0.0614

###

Target: Zap1 (UniProt P47043)
Sequence: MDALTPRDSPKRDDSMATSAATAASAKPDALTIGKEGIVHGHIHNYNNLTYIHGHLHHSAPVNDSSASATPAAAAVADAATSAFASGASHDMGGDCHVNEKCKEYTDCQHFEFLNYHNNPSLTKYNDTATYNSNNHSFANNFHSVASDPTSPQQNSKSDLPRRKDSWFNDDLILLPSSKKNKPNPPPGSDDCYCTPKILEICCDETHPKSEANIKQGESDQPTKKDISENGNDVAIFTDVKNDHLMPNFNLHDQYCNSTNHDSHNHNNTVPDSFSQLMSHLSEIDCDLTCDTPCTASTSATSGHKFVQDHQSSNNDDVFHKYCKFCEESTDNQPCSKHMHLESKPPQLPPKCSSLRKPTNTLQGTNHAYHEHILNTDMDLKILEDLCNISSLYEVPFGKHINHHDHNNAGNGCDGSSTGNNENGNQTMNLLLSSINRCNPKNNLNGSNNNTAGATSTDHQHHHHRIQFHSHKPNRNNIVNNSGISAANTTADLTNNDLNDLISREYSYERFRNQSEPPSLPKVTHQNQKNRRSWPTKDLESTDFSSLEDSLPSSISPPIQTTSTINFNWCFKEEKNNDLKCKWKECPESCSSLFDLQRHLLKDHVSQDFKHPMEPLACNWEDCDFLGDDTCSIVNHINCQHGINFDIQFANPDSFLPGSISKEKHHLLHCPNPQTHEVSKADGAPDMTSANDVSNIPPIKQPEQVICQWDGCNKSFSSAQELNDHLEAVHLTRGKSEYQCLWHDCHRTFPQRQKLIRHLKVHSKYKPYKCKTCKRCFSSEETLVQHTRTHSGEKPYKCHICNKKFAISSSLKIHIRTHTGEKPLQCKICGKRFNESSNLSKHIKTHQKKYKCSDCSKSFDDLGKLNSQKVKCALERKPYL
Assay: PBM E-score (8-mer binding enrichment) (E-score (-0.5 to 0.5)); higher = stronger / more preferred TF binding
Conditions: protein concentration: 200 nM; construct: GST-full length
The full ranking holds about 33,000 sequences; the median of “E-score (-0.5 to 0.5)” is about -0.021, and the highest 2% start at about 0.32. The sample holds the highest values, similar sequences and a random draw of the others, so the mix is not that of the screen.
measurement kind: PBM E-score

Query string: Notebook: pull reported PBM E-score for Zap1 (UniProt P47043), entry `CCCTAAGC`
Result string: -0.159

Query string: Notebook: pull reported PBM E-score for Zap1 (UniProt P47043), entry `CCCCTGTA`
Result string: 0.02

Query string: Notebook: pull reported PBM E-score for Zap1 (UniProt P47043), entry `CAGACAGG`
Result string: -0.0636

Query string: Notebook: pull reported PBM E-score for Zap1 (UniProt P47043), entry `ACCTAAGG`
Result string: 0.185

Query string: Notebook: pull reported PBM E-score for Zap1 (UniProt P47043), entry `ATTAGAAA`
Result string: 0.0663

Query string: Notebook: pull reported PBM E-score for Zap1 (UniProt P47043), entry `CTCCATGC`
Result string: -0.229

Query string: Notebook: pull reported PBM E-score for Zap1 (UniProt P47043), entry `TAAGCGCA`
Result string: -0.0722

Query string: Notebook: pull reported PBM E-score for Zap1 (UniProt P47043), entry `CACCTGTA`
Result string: -0.0421

Query string: Notebook: pull reported PBM E-score for Zap1 (UniProt P47043), entry `CCTGCAAG`
Result string: -0.043

Query string: Notebook: pull reported PBM E-score for Zap1 (UniProt P47043), entry `ATATAACG`
Result string: 0.183

Query string: Notebook: pull reported PBM E-score for Zap1 (UniProt P47043), entry `CTATAACA`
Result string: -0.0126

Query string: Notebook: pull reported PBM E-score for Zap1 (UniProt P47043), entry `ACCCTGTA`
Result string: 0.353

Query string: Notebook: pull reported PBM E-score for Zap1 (UniProt P47043), entry `ATATAACA`
Result string: 0.176

Query string: Notebook: pull reported PBM E-score for Zap1 (UniProt P47043), entry `AAGAGATG`
Result string: -0.16

Query string: Notebook: pull reported PBM E-score for Zap1 (UniProt P47043), entry `AGTGATGA`
Result string: -0.0675

Query string: Notebook: pull reported PBM E-score for Zap1 (UniProt P47043), entry `CGCCTTCA`
Result string: -0.26

Query string: Notebook: pull reported PBM E-score for Zap1 (UniProt P47043), entry `CTAGCTCC`
Result string: -0.246

Query string: Notebook: pull reported PBM E-score for Zap1 (UniProt P47043), entry `GTCTCCCA`
Result string: -0.252

Query string: Notebook: pull reported PBM E-score for Zap1 (UniProt P47043), entry `GCTTCAAC`
Result string: 0.00654

Query string: Notebook: pull reported PBM E-score for Zap1 (UniProt P47043), entry `CATCCAGC`
Result string: -0.108

Query string: Notebook: pull reported PBM E-score for Zap1 (UniProt P47043), entry `GCAACCCC`
Result string: 0.342

Query string: Notebook: pull reported PBM E-score for Zap1 (UniProt P47043), entry `AAATGAAA`
Result string: 0.23

Query string: Notebook: pull reported PBM E-score for Zap1 (UniProt P47043), entry `AATCAGCA`
Result string: -0.0933

Query string: Notebook: pull reported PBM E-score for Zap1 (UniProt P47043), entry `CTATAACC`
Result string: 0.446

Query string: Notebook: pull reported PBM E-score for Zap1 (UniProt P47043), entry `ACCCTGAG`
Result string: 0.378

Query string: Notebook: pull reported PBM E-score for Zap1 (UniProt P47043), entry `GGCAACCA`
Result string: 0.116

Query string: Notebook: pull reported PBM E-score for Zap1 (UniProt P47043), entry `CGCTTTGA`
Result string: 0.0708

Query string: Notebook: pull reported PBM E-score for Zap1 (UniProt P47043), entry `CGCAACCG`
Result string: 0.281

Query string: Notebook: pull reported PBM E-score for Zap1 (UniProt P47043), entry `ATAGCAGG`
Result string: 0.0205

Query string: Notebook: pull reported PBM E-score for Zap1 (UniProt P47043), entry `ATACTCTC`
Result string: -0.15

Query string: Notebook: pull reported PBM E-score for Zap1 (UniProt P47043), entry `CTATAATC`
Result string: -0.017

Query string: Notebook: pull reported PBM E-score for Zap1 (UniProt P47043), entry `CAGCTGTA`
Result string: -0.203

Query string: Notebook: pull reported PBM E-score for Zap1 (UniProt P47043), entry `TACACAGA`
Result string: 0.0113

Query string: Notebook: pull reported PBM E-score for Zap1 (UniProt P47043), entry `ATCAACGC`
Result string: -0.0956

Query string: Notebook: pull reported PBM E-score for Zap1 (UniProt P47043), entry `CGGAACCG`
Result string: 0.169

Query string: Notebook: pull reported PBM E-score for Zap1 (UniProt P47043), entry `GGTCAAGA`
Result string: 0.242

Query string: Notebook: pull reported PBM E-score for Zap1 (UniProt P47043), entry `CTACGTAG`
Result string: -0.0165

This collection of values is drawn from the supplement of paper PMC3334620.
